Assayed target: hCMV glycoprotein B (gB; HEK293T transfectant) (hCMV, UniProt P06473 32-906)
Sequence (P06473 32-906 limits assumed): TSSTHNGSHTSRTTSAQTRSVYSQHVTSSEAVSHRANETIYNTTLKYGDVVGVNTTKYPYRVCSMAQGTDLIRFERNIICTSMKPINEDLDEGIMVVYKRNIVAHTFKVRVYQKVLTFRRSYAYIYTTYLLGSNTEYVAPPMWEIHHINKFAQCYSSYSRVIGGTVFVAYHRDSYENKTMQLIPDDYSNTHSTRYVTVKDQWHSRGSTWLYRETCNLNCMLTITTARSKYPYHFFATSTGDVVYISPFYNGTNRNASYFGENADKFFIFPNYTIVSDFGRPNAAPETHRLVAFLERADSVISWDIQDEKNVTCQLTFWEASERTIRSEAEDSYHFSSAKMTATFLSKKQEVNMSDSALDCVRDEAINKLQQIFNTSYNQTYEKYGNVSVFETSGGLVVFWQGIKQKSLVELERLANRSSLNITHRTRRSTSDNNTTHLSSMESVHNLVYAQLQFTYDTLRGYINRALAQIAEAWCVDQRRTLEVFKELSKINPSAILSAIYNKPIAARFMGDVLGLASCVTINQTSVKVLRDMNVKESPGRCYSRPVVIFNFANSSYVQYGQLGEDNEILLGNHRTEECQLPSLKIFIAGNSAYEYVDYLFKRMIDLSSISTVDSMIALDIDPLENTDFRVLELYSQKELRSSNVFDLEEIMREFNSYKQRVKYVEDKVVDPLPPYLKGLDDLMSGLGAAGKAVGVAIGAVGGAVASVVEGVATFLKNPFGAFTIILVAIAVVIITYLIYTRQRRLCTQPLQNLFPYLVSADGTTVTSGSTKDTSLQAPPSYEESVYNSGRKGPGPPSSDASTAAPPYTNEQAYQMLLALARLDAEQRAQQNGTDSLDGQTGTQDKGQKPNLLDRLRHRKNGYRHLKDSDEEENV
Method notes: cell-based or functional assay
Quantity: 90% neutralization VR1814, ARPE (µg/mL)
Give your result in µg/mL as a bare value.

>  <Binder>
2B11 (antibody, V domains shown, human IgG; also called 2B11-biotin) VH: AVRLVESGGGLAQPGRSLRLSCQVSGFTFGSYEMNWVRQAPGKGLEWIAYIDFTGSTIYYADSVKGRFTISRNTARNSLYLQMNSLRVEDTAVYYCVRDAGRWGTSWYYFDYWGQGTRVTVSP VL: QSVLTQPPSVSGAPGQRVTISCTGISSNIGAGYDIHWYQQIPGKAPKLLVYGNNNRPSGVPDRFSGSKSGTSVSLAITGLQVEDEADYYCQSYDNSLNGWVFGGGTRLTVL

>  <Unit string>
µg/mL

>  <90% neutralization VR1814, ARPE>
0.2

$$$$
>  <Binder>
7H3 (antibody, V domains shown, fully human IgG1 with unaltered Fc; also called 7H3-biotin; LJP538) VH: QVQLVQSGAEVKNPGASVKVSCKASGYTFTDYYIHWVRQAPGQGLEWMGWFNPNSGGTNFVQNFQGRVTMTRDTSISTAYMELSRLRSDDTAMYYCAKDSAKTASAYYGLNFFYYGMDVWGQGTTVTVSS VL: QSVLSQPPSASGTPGQRVTISCSGSSSNIGKNYVYWYQQVPGTAPKLLMFKNNQRPSGVPDRFSGSKSGTSASLAISGLRSEDEADYYCSAWDGSLSRPLFGGGTKVTVL

>  <Unit string>
µg/mL

>  <90% neutralization VR1814, ARPE>
0.6

$$$$
>  <Binder>
5F1 (antibody, V domains shown, human IgG; also called 5F1-biotin) VH: AVQLVESGGGLAQPGRSLRLSCKVSGFTFSSYEMNWVRQAPGKGLEWIAYIDFTGSTIYYADSVKGRFTISRDTARNSLYLQMNKLRVEDTAVYYCVRDAGRWGTSWYYFDYWGQGTLVTVSS VL: QSVLTQPPSVSGAPGQRVTISCTGLSSNIGAGYDIHWYQQIPGKAPKLLIYGNNNRPSGVPDRFSGSKSGTSVSLAITGLQAEDEADYYCQSYDSSLNGWVFGGGTRLTVL

>  <Unit string>
µg/mL

>  <90% neutralization VR1814, ARPE>
0.1

$$$$
>  <Binder>
4H9 (antibody, V domains shown, human IgG; also called 4H9-biotin; 4H9.6) VH: AVQLVESGGGLVRPGGSLRLSCAASGFTFSSHEMHWVRQAPGKGLEWLSYIDFTGSIIYYADSVRGRFTISRDNTKKSLFLQMNSLRDEDTALYYCARDGGRWGTSWYYFDYWGQGVLVTVSS VL: QSVLTQPPSVSGAPGQRVTITCTGSSSNFGAGYDGHWYQQLPGTAPKLLIYGSNRPSGVPDRFSGSKSGTSVSLAITGLQADDEADYYCQSYDSSLSAWVFGGGTKLTVL

>  <Unit string>
µg/mL

>  <90% neutralization VR1814, ARPE>
0.4

$$$$
>  <Binder>
6B4 (antibody, V domains shown, human IgG; also called 6B4-biotin) VH: QVQLVESGGGVVQPGRSLRLSCAASGFRFNEFNMHWVRQAPGKGLEWVAVISIDGRHKYNADSVEGRFTISRDNSRNTLYLQMNSLRVEDTALYYCVTDGKAVDGFSGILEFWGQGTPVTVST VL: EIVLTQSPATLSLSPGERATLSCWASQSVGGYLAWYQQKPGQAPRLLIYDASIRATGIPARFSGSGSGTHFTLTINSLEPEDFAVYYCQQRNNWPPLTFGGGTKVEIK

>  <Unit string>
µg/mL

>  <90% neutralization VR1814, ARPE>
0.15

$$$$

Continue with the next binder.
Task: Recorded 90% neutralization VR1814, ARPE of 10C6 (antibody, V domains shown, human IgG; also called 10C6-biotin; 1006) VH: AVQLVESGGGLAQPGRSLRLSCKVSGFSFSNFEMNWVRQAPGKGLEWIAYIDFTGSTIYYSDSVKGRFTISRDTARNSLYLQMNKLRVEDTAVYYCVRDAGRWGTSWYYFDYWGQGTLVTVSS VL: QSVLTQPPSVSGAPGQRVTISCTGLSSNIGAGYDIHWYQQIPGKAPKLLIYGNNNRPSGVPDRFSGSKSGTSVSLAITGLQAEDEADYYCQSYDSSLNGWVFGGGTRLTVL , please.
Output: 0.2
